Hey, just so you know, these numbers are from patent US20260242478A1.

Molecular target: T1, PSMA Fab (006 PSMA Fab)
T1 construct: also called Anti-PSMA Fab; anti-PSMA Fab
Test: clonal phage ELISA on captured PSMA Fab, wells pre-incubated with PSMA antigen as competitor, anti-M13 HRP detection;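 also: crude clonal phage supernatants added, with no intervening wash, to wells preincubated with PSMA antigen in blocking buffer, incubated briefly, then washed before detecting bound phage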
Phage binding ELISA signal, Anti-PSMA Fab with PSMA antigen reference
Note: the reply should be a number with no unit written.

BINDER	RESULT
TNKLCIPTWMCSGF [Phage-2745]	0.0715

Please look up its Phage binding ELISA signal, Anti-PSMA Fab with PSMA antigen: DWKWCIPAWMCSQD [Phage-2748]
0.0645

Please look up its Phage binding ELISA signal, Anti-PSMA Fab with PSMA antigen: GNSWCTPQWMCTGF [Phage-2740]
0.0596

Please look up its Phage binding ELISA signal, Anti-PSMA Fab with PSMA antigen: FDKWCTPPWMCKVF [Phage-2744]
0.143

Please look up its Phage binding ELISA signal, Anti-PSMA Fab with PSMA antigen: DIKRCTPAWMCSWM [Phage-2742]
0.0807

Please look up its Phage binding ELISA signal, Anti-PSMA Fab with PSMA antigen: MSKWCVPTWMCQWQ [Phage-2741]
0.0979
